// data source = patent US20240246964A1

Hi there, I'd appreciate the recorded pIC50 for every entry that follows.
- TARGET_UNDER_TEST: PD-L1 His protein / PD-1 Fc protein (Homo sapiens (Human), UniProt Q9NZQ7)
- Sequence (Q9NZQ7 19-238): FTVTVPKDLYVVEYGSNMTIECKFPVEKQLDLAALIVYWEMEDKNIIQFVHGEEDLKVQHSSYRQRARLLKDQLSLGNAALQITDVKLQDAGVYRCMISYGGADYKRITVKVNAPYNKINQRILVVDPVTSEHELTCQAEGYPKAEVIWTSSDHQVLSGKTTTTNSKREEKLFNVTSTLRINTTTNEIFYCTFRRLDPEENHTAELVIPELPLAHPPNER
- EXPERIMENT_SUMMARY: HTRF Assay (PD-1/PD-L1 interaction)
- Type: binding
- CONDITION_NOTES: PD-L1 His 6 nM, PD-1 Fc 6 nM
One number for each entry, as −log10 of the molar value.

>>> test_result("COc1nc(-c2cccc(-c3nccc(-c4ccc(CN5CC[C@H](O)C5)c(OC)n4)c3Cl)c2Cl)ccc1CN1CC[C@H](O)C1")
8.99
>>> test_result("COc1nc(-c2cccc(-c3ccnc(-c4cc(OC)c5nc(CNC[C@@H]6CCC(=O)N6)nn5c4)c3Cl)c2Cl)ccc1CNC(C)C")
9.25

API: the following record is the query input.
Lab note: measured pIC50 of COc1cc(-c2nccc(-c3cccc(-c4ccc(CNC[C@@H]5CCC(=O)N5)c(OC)n4)c3Cl)c2Cl)cc(F)c1CNC1CCN(C(C)=O)CC1 was 8.95

====

- TARGET_UNDER_TEST: human PD-L1 (Homo sapiens (Human), UniProt Q9NZQ7)
- Sequence (Q9NZQ7 19-290): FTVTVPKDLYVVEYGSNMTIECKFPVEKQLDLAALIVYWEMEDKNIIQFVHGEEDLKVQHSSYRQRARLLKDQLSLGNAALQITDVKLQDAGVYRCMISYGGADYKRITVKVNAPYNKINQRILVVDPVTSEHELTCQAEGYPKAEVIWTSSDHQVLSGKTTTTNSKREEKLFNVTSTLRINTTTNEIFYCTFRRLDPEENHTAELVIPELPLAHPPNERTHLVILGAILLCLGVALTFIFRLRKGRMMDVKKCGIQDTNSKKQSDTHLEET
- EXPERIMENT_SUMMARY: T cell activation luciferase reporter cell culture system (T Cell Activation Assay)
- Type: cell-based
- CONDITION_NOTES: luciferase reporter assay; PD-L1 aAPC/CHO-K1 cells with PD-1 effector Jurkat T cells
pEC50: −log10 of the molar value.
Please note: Y applies when pEC50 is 7 or greater, and N applies otherwise.

Examples from the recorded data:
>>> class_name("COc1cc(-c2ncnc(-c3cccc(NC(=O)c4cn(C)c(=O)n(C)c4=O)c3Cl)c2Cl)ccc1CNC[C@H](C)O")
"N"
>>> class_name("COc1cc(-c2cccc(-c3ccnc(-c4cnc(CNC5CCOCC5)c(OC)c4)c3Cl)c2Cl)cnc1CNC1CCOCC1")
"N"
>>> class_name("COc1nc(-c2cccc(-c3ccnc(-c4cc(OC)c5nc(CNCC(C)(C)O)nn5c4)c3Cl)c2Cl)ccc1CNC1CCN(C(C)=O)CC1")
"N"
>>> class_name("COc1nc(-c2ccnc(-c3cccc4c3CC[C@@H]4Oc3nc(OC)c(CN4CC5(C4)CN(C(C)=O)C5)cc3C(F)(F)F)c2Cl)ccc1CN1CC2(C1)CN(C(C)=O)C2")
"N"
>>> class_name("COc1nc(-c2cccc(-c3ccnc(-c4ccc5c(c4)CCC[C@H]5NC[C@@H]4CCC(=O)N4)c3Cl)c2Cl)ccc1CNC[C@H](C)O")
"N"

*Q* Quick check: does COc1cc(-c2nccc(-c3cccc(-c4ccc(CNC[C@@H]5CCC(=O)N5)c(OC)n4)c3Cl)c2C)ccc1CNC[C@@H]1CCC(=O)N1 have pEC50 greater than or equal to 7?
*A* Y

*Q* For this molecule, is measured pEC50 7 or higher? COc1cc(-c2nccc(-c3cccc(-c4ccc(CNC[C@@H]5CCC(=O)N5)c(OC)n4)c3Cl)c2Cl)cc2c1CN(CCC(C)(C)O)CC2
*A* Y

====

Hi there, I'd appreciate the recorded pIC50 for every entry that follows.
- TARGET_UNDER_TEST: PD-L1 His protein / PD-1 Fc protein (Homo sapiens (Human), UniProt Q9NZQ7)
- EXPERIMENT_SUMMARY: HTRF Assay (PD-1/PD-L1 interaction)
- Format: binding
- CONDITION_NOTES: PD-L1 His 6 nM, PD-1 Fc 6 nM
Numbers only, as −log10 of the molar value.

>>> test_result("COc1cc(-c2nccc(-c3cccc(-c4ccc(CNC5CCN(C(C)=O)CC5)c(OC)n4)c3C)c2Cl)ccc1CNC1CCN(C(C)=O)CC1")
9.73

Please state pIC50 for every compound in the list that follows.
1. CNCc1ccc(C(=O)Nc2cccc(-c3ccnc(-c4ccc(CNC[C@@H]5CCC(=O)N5)c(OC)c4)c3Cl)c2C)nc1
2. CNCc1cc(OC)cc(-c2nccc(-c3cccc(-c4ccc(CNC)c(OC)n4)c3Cl)c2Cl)c1
3. COCCNCc1cn(C)c2nc(-c3cccc(-c4ccnc(-c5ccc(CNC[C@@H]6CCC(=O)N6)c(OC)c5)c4Cl)c3Cl)ccc12
4. CCC(=O)N1CCC(NCc2ccc(-c3cccc(-c4ccnc(-c5cc(F)c(CNC6CCN(C(=O)CC)CC6)c(OC)c5)c4Cl)c3Cl)nc2OC)CC1

*A*
[9.70, 8.17, 9.05, 7.63]

Please fill in: pIC50 reported for COc1nc(-c2cccc(-c3ccnc(-c4ccc5c(c4)CCC[C@@H]5NC[C@@H]4CCC(=O)N4)c3Cl)c2Cl)ccc1CNC[C@@H]1CCC(=O)N1 = 7.81

====

- TARGET_UNDER_TEST: human PD-L1 (Homo sapiens (Human), UniProt Q9NZQ7)
- EXPERIMENT_SUMMARY: T cell activation luciferase reporter cell culture system (T Cell Activation Assay)
- Type: cell-based
- CONDITION_NOTES: luciferase reporter assay; PD-L1 aAPC/CHO-K1 cells with PD-1 effector Jurkat T cells
pEC50: −log10 of the molar value.
MEASURED_PROPERTY: pEC50

Batch lookup, pEC50 per entry.
1. COc1cc(-c2nccc(-c3cccc(-c4ccc5c(CNC6CCS(=O)(=O)CC6)cn(C)c5n4)c3Cl)c2Cl)ccc1CNC1CCN(C(C)=O)CC1 [Example 558]
2. COc1nc(-c2cccc(-c3ccnc(-c4ccc5c(c4)CNC5)c3Cl)c2Cl)ccc1CN(C)C1CCN(C(C)=O)CC1 [Compound 163]

*A*
1: ≤ 5.00; 2: ≤ 5.00

// pEC50 (human PD-L1 (Homo sapiens (Human), UniProt Q9NZQ7)) for CCOc1cc(-c2nccc(-c3cccc(-c4ccc(CNC5CCN(C(C)=O)CC5)c(OC)n4)c3Cl)c2Cl)cn2nc(CN[C@H]3CC[C@H](O)CC3)nc12 [Example 583] = ≤ 5.00

====

- TARGET_UNDER_TEST: PD-L1 His protein / PD-1 Fc protein (Homo sapiens (Human))
- EXPERIMENT_SUMMARY: HTRF Assay (PD-1/PD-L1 interaction)
- Assay type: binding
- CONDITION_NOTES: PD-L1 His 6 nM, PD-1 Fc 6 nM
What IC50 was measured for each of the following?
Give bare numbers, in nM.

Previously resolved entries follow.
>>> test_result("COc1cc(-c2nccc(-c3cccc(-c4ccc(CN5CCC(NC(C)=O)CC5)c(OC)n4)c3Cl)c2Cl)ccc1CN1CCC(NC(C)=O)CC1 [Example 322]")
23.1
>>> test_result("CNCc1ccc(-c2cccc(-c3ccnc(-c4ccc(CNC5CCN(C(C)=O)CC5)c(OC)c4)c3Cl)c2Cl)nc1OC [Compound 212]")
2.72

Moving on to another compound below.
Entry under test: COc1cc(-c2nccc(-c3cccc(-c4ccc(CNC5CCN(C(=O)c6ccccc6)CC5)c(OC)n4)c3Cl)c2Cl)ccc1CNC1CCN(C(=O)c2ccccc2)CC1 [Example 422] . Its IC50 was 0.9

====

- TARGET_UNDER_TEST: human PD-L1 (Homo sapiens (Human), UniProt Q9NZQ7)
- EXPERIMENT_SUMMARY: T cell activation luciferase reporter cell culture system (T Cell Activation Assay)
- Type: cell-based
- CONDITION_NOTES: luciferase reporter assay; PD-L1 aAPC/CHO-K1 cells with PD-1 effector Jurkat T cells
For each of the compounds below, state its log10 EC50.
Form field - Quantity: EC50; Unit: nM; Scale: log10

>>> test_result("COc1cc(-c2nccc(-c3cccc(-c4ccc5c(CNC6CN(C(C)=O)C6)cn(C)c5n4)c3Cl)c2Cl)ccc1CNC[C@@H]1CCC(=O)N1 [Compound 95]")
2.02
>>> test_result("COc1nc(-c2cccc(-c3ccnc(-c4cc(OC)c5nc(CN6CC(C(=O)O)C6)nn5c4)c3Cl)c2Cl)ccc1CNC[C@@H]1CCC(=O)N1 [Example 261]")
2.10
>>> test_result("COc1nc(-c2cccc(-c3ccnc(-c4cc(OC)c5nc(CN[C@H]6C[C@](C)(O)C6)nn5c4)c3Cl)c2Cl)ccc1CNC[C@@H]1CCC(=O)N1 [Example 370]")
1.61
>>> test_result("COc1cc(-c2nccc(-c3cccc(-c4cn5cc(CNC[C@@H]6CCC(=O)N6)nc5cn4)c3Cl)c2Cl)ccc1CNC[C@@H]1CCC(=O)N1 [Example 291]")
2.58
>>> test_result("COc1nc(-c2cccc(-c3ccnc(-c4ccc5c(c4)CN(CCNC[C@@H]4CCC(=O)N4)C5=O)c3Cl)c2Cl)ccc1CNC1CCN(C(C)=O)CC1 [Compound 143]")
3.74

Provide log10 EC50 values for the following items, in order.
1. COc1cc(-c2nccc(-c3cccc(-c4ccc(CNC5CCN(C(C)=O)CC5)c(OC)n4)c3Cl)c2Cl)ccc1CNC1CCN(C(=O)C(C)C)CC1 [Example 371]
2. COc1nc(-c2cccc(-c3ccnc(-c4cc5c(=O)n(C)c(CN[C@H]6C[C@](C)(O)C6)nn5c4)c3Cl)c2Cl)cc(Cl)c1CNC[C@@H]1CCC(=O)N1 [Compound 87]

*A*
1.69
2.49

Give measured log10 EC50 for every item shown.
1. COc1cc(CNC[C@@H]2CCC(=O)N2)cc(-c2nccc(-c3cccc(-c4ccc(CNC[C@@H]5CCC(=O)N5)c(OC)n4)c3Cl)c2Cl)c1 [Compound 153]
2. COc1cc(-c2nccc(-c3cccc(-c4ccc(CN5CC6(CNC(=O)C6)C5)c(OC)n4)c3Cl)c2Cl)cc2c1CN(CC(O)CF)CC2 (stereo not drawn) [Example 296]

*A*
2.89
1.70
